Exercise: for every item that follows, state its recorded EC50.
- Tested on: HCV (Ib) RNA replication
- RUN_DESCRIPTION: Cell-based luciferase reporter HCV (1b) RNA replication assay (replicon cell lines Huh-7 5.2 and ET)
- Parameters: species or system Hepatitis C virus
- RECORDED_CONDITIONS: Hepatitis C virus, Huh-7, 96 h, HCV 1b genotype replicon, luciferase readout, 4 days incubation; read-out: EC50_1b

Recorded EC50 for COC(=O)N[C@H](C(=O)N1CCC[C@H]1c1nc2cc(-c3ncc(-c4ccc5nc([C@@H]6CCCN6C(=O)[C@@H](NC(=O)OC)C(C)C)[nH]c5c4)c(O)n3)ccc2[nH]1)C(C)C [Compound 20] with HCV (Ib) RNA replication, please? 5 to 5000 nM

Quick one: COC(=O)N[C@H](C(=O)N1C[C@@H](C)C[C@H]1c1nc2cc(-c3ccc(-c4ccc5[nH]c([C@@H]6C[C@H](C)CN6C(=O)[C@@H](NC(=O)OC)C(C)C)nc5c4)c(F)c3)ccc2[nH]1)C(C)C [Compound 242] ≤ 5 nM

# iterate: COC(=O)NC(C(=O)N1CCC[C@H]1c1nc2ccc(-c3ccc(-c4ccc5nc([C@@H]6CCCN6C(=O)[C@@H](NC(=O)OC)C(C)C)[nH]c5c4)cc3)cc2[nH]1)C(C)(C)C (stereo partly drawn) [Compound 211] ≤ 5 nM

----------
- System: HCV (Ib) RNA replication
- RUN_DESCRIPTION: Cell-based luciferase reporter HCV (1b) RNA replication assay (replicon cell lines Huh-7 5.2 and ET)
- Set-up: species or system Hepatitis C virus
- RECORDED_CONDITIONS: Hepatitis C virus, Huh-7, 96 h, HCV 1b genotype replicon, luciferase readout, 4 days incubation; read-out: EC50_1b
- Experimental: Cell-Based Luciferase Reporter HCV (Ib) RNA Replication Assay Cell Culture […] Approximately 3000 viable Huh-7, 5.2 or ET cells (100 μl) are plated per well in a white opaque 96-well microtiter plate. […] Plates are read for luciferase counts using a luminometer (Wallac MicroBeta Trilux, Perkin ELmer™, MA, USA). […]
Give measured EC50 for each item. Keep answers brief.

Consider the compound CC(C)(C)OC(=O)N1CCC[C@H]1c1nc2cc(-c3ccc(-c4ccc5[nH]c([C@@H]6CCCN6C(=O)OC(C)(C)C)nc5c4)s3)ccc2[nH]1 [Compound 16] and give its measured EC50. 5 to 5000 nM

Repeat with CCC(C)CN1CCC[C@H]1c1nc2cc(C#Cc3ccc4[nH]c([C@@H]5CCCN5CC(C)CC)nc4c3)ccc2[nH]1 (stereo partly drawn) [Compound 137] 5 to 5000 nM

Also need CCN(C(=O)OC)[C@H](C(=O)N1C[C@@H](C)C[C@H]1c1nc2ccc(-c3ccc(-c4ccc5[nH]c([C@@H]6C[C@H](C)CN6C(=O)[C@@H](NC(=O)OC)C(C)C)nc5c4)cc3)cc2[nH]1)C(C)C [Compound 297] , thanks. ≤ 5 nM

Now give it for CC(C)[C@H](NC(=O)O[C@H]1CCOC1)C(=O)N1CCC[C@H]1c1nc2cc(-c3ccsc3-c3ccc4[nH]c([C@@H]5CCCN5C(=O)[C@@H](NC(=O)O[C@H]5CCOC5)C(C)C)nc4c3)ccc2[nH]1 [Compound 47] too. 5 to 5000 nM

How about C(#Cc1ccc2[nH]c([C@@H]3CCCN3CC3CCCC3)nc2c1)c1ccc2[nH]c([C@@H]3CCCN3CC3CCCC3)nc2c1 [Compound 139] ? 5 to 5000 nM

Would you kindly repeat that for O=C1CCC(C(=O)N2CCC[C@H]2c2nc3cc(C#Cc4ccc5nc([C@@H]6CCCN6C(=O)[C@@H]6CCC(=O)N6)[nH]c5c4)ccc3[nH]2)N1 (stereo partly drawn) [Compound 67] ? 5 to 5000 nM

Same lookup for COC(=O)N[C@H](C(=O)N1C[C@@H](C(F)(F)F)C[C@H]1c1nc2cc(-c3ccc(-c4ccc5[nH]c([C@@H]6C[C@H](C(F)(F)F)CN6C(=O)[C@@H](NC(=O)OC)C(C)C)nc5c4)cc3)ccc2[nH]1)C(C)C [Compound 316] , please. ≤ 5 nM

What about this compound? CC(C)(C)OC(=O)N1CCC[C@H]1c1nc2cc(C#CC#Cc3ccc4[nH]c([C@@H]5CCCN5C(=O)OC(C)(C)C)nc4c3)ccc2[nH]1 [Compound 69] 5 to 5000 nM

Ok, now CC(=O)NC1(C(=O)N2CCC[C@H]2c2nc3cc(C#Cc4ccc5[nH]c([C@@H]6CCCN6C(=O)C6(NC(C)=O)CC6)nc5c4)ccc3[nH]2)CC1 [Compound 110] > 5000 nM

Queued: COC(=O)N[C@H](C(=O)N1[C@@H](C)CC[C@H]1c1nc2cc(-c3ccc(-c4ccc5[nH]c([C@@H]6CC[C@H](C)N6C(=O)[C@@H](NC(=O)OC)C(C)C)nc5c4)c4c3OCO4)ccc2[nH]1)C(C)C [Compound 318] ≤ 5 nM

Same question, CC(C)(C)OC(=O)N1CCC[C@H]1c1nc2cc(N3CCCN(c4ccc5nc([C@@H]6CCCN6C(=O)OC(C)(C)C)[nH]c5c4)CC3)ccc2[nH]1 [Compound 273] this time > 5000 nM

Repeat for the following compound: CC(C)(C)OC(=O)NC(CC1CCC1)C(=O)N1CCC[C@H]1c1nc2cc(C#Cc3ccc4[nH]c([C@@H]5CCCN5C(=O)[C@H](CC5CCC5)NC(=O)OC(C)(C)C)nc4c3)ccc2[nH]1 (stereo partly drawn) [Compound 121] 5 to 5000 nM

----------
- Test system: HCV (Ib) RNA replication
- RUN_DESCRIPTION: Cell-based luciferase reporter HCV (1b) RNA replication assay (replicon cell lines Huh-7 5.2 and ET)
- Parameters: species or system Hepatitis C virus
- RECORDED_CONDITIONS: Hepatitis C virus, Huh-7, 96 h, HCV 1b genotype replicon, luciferase readout, 4 days incubation; read-out: EC50_1b
pEC50: −log10 of the molar value.
ENDPOINT_LABEL: pEC50

Which pEC50 is reported for this compound? COC(=O)N[C@H](C(=O)N1C[C@@H](C)C[C@H]1c1nc2cc(-c3ccc(-c4ccc5[nH]c([C@@H]6CC[C@H](C)N6C(=O)[C@@H](NC(=O)OC)C(C)C)nc5c4)cc3)ccc2[nH]1)C(C)C [Compound 320] ≥ 8.30

Similarly, COC(=O)N[C@H](C(=O)N1CCC[C@H]1c1nc2cc(C#Cc3ccc4nc([C@@H]5CCCN5C(=O)[C@H](C(C)C)N(C)C(=O)OC)[nH]c4c3)ccc2[nH]1)C(C)C [Compound 117] ? ≥ 8.30

Also CCCCc1cc(-c2ccc3[nH]c([C@@H]4CCCN4C(=O)[C@@H](NC(=O)OC)C(C)C)nc3c2)sc1-c1ccc2[nH]c([C@@H]3CCCN3C(=O)[C@@H](NC(=O)OC)C(C)C)nc2c1 [Compound 157] ? ≥ 8.30

Further, for CN1CCC[C@H]1C(=O)N1CCCC1c1nc2ccc(C#Cc3ccc4[nH]c([C@@H]5CCCN5C(=O)[C@@H]5CCCN5C)nc4c3)cc2[nH]1 (some centres unmarked) [Compound 66] ? 5.30 to 8.30

# iterate: COC(=O)N[C@H](C(=O)N1CCC[C@H]1c1nc2c(F)cc(-c3ccc(-c4cc(F)c5nc([C@@H]6CCCN6C(=O)[C@@H](NC(=O)OC)C(C)C)[nH]c5c4)c(C)c3)cc2[nH]1)C(C)C [Compound 254] ≥ 8.30

----------
- System: HCV (Ib) RNA replication
- RUN_DESCRIPTION: Cell-based luciferase reporter HCV (1b) RNA replication assay (replicon cell lines Huh-7 5.2 and ET)
- Parameters: species or system Hepatitis C virus
- RECORDED_CONDITIONS: Hepatitis C virus, Huh-7, 96 h, HCV 1b genotype replicon, luciferase readout, 4 days incubation; read-out: EC50_1b
pEC50: −log10 of the molar value.
ENDPOINT_LABEL: pEC50

Look up pEC50 for this compound: COC(=O)N[C@H](C(=O)N1CCC[C@H]1c1nc2cc(-c3ccc(-c4ccc5[nH]c([C@@H]6CCCN6C(=O)[C@@H](NC(=O)OC)[C@@H](C)OC)nc5c4)cc3)ccc2[nH]1)[C@@H](C)OC [Compound 170] ≥ 8.30

Consider next the compound COC(=O)N[C@H](C(=O)N1CCC[C@H]1c1nc2cc(-c3ccc(-c4ccc5[nH]c([C@@H]6C[C@H](C)CN6C(=O)[C@@H](NC(=O)OC)C(C)C)nc5c4)cc3)ccc2[nH]1)C(C)C [Compound 272] in the same way. ≥ 8.30

Similarly, O=C(CC1CCCC1)N1CCC[C@H]1c1nc2cc(C#Cc3ccc4[nH]c([C@@H]5CCCN5C(=O)CC5CCCC5)nc4c3)ccc2[nH]1 [Compound 125] ? 5.30 to 8.30

Please do the same for CC[C@H]1C[C@@H](c2nc3cc(-c4ccc(-c5ccc6[nH]c([C@@H]7C[C@H](CC)CN7C(=O)[C@@H](NC(C)OC)C(C)C)nc6c5)cc4)ccc3[nH]2)N(C(=O)[C@@H](NC(=O)OC)C(C)C)C1 (some centres unmarked) [Compound 302] as well. ≥ 8.30

Can you check COC(=O)N(C)[C@H](C(=O)N1C[C@@H](C)C[C@H]1c1nc2cc(-c3ccc(-c4ccc5[nH]c([C@@H]6C[C@H](C)CN6C(=O)[C@H](C(C)C)N(C)C(=O)OC)nc5c4)c4nsnc34)ccc2[nH]1)C(C)C [Compound 299] next? ≥ 8.30

Same thing, different compound: CCOCCC(=O)N1CCC[C@H]1c1nc2cc(C#Cc3ccc4[nH]c([C@@H]5CCCN5C(=O)CCOCC)nc4c3)ccc2[nH]1 [Compound 107] 5.30 to 8.30

Note, next up: COC(=O)N[C@H](C(=O)N1CCC[C@H]1c1nc2ccc(CCc3ccc4nc([C@@H]5CCCN5C(=O)[C@@H](NC(=O)OC)C(C)C)[nH]c4c3)cc2[nH]1)C(C)C [Compound 64] ≥ 8.30

Let us now turn to COC(=O)N[C@H](C(=O)N1CCC[C@H]1c1nc2ccc(-c3coc(-c4ccc5nc([C@@H]6CCCN6C(=O)[C@@H](NC(=O)OC)C(C)C)[nH]c5c4)n3)cc2[nH]1)C(C)C [Compound 236] ≥ 8.30

Here is the next compound: COC(=O)N[C@H](C(=O)N1CCC[C@H]1c1nc2cc(-c3ccc(-c4ccc5[nH]c([C@@H]6CCCN6C(=O)[C@@H](NC(=O)OC)C(C)C)nc5c4)s3)ccc2[nH]1)C(C)C [Compound 17] ≥ 8.30

Same question for COC(=O)N[C@H](C(=O)N1C[C@@H](O)C[C@H]1c1nc2cc(-c3ccc(-c4ccc5[nH]c([C@@H]6C[C@H](O)CN6C(=O)[C@@H](NC(=O)OC)C(C)C)nc5c4)c(C)c3)ccc2[nH]1)C(C)C [Compound 265] please. ≥ 8.30

Also need O=C(OCc1ccccc1)N1CCCC[C@H]1c1nc2cc(C#C/C=C/c3ccc4[nH]c([C@@H]5CCCCN5C(=O)OCc5ccccc5)nc4c3)ccc2[nH]1 [Compound 40] , thanks. 5.30 to 8.30

One more compound: CC(C)[C@H](NC(=O)OC(C)(C)C)C(=O)N1CCC[C@H]1c1nc2ccc(-c3ccc(-c4ccc5nc([C@@H]6CCCN6C(=O)[C@@H](NC(=O)OC(C)(C)C)C(C)C)[nH]c5c4)cc3)cc2[nH]1 [Compound 189] 5.30 to 8.30

Now the compound COC(=O)N[C@H](C(=O)N1CCC[C@H]1c1nc2cc(-c3ccc(-c4ccc5c(c4)nc([C@@H]4CCCN4C(=O)[C@@H](NC(=O)OC)C(C)C)n5C)cc3)ccc2n1C)C(C)C [Compound 231] < 5.30

For COC(=O)N[C@H](C(=O)N1CCC[C@H]1c1nc2ccc(-c3cc(OC)c(-c4ccc5nc([C@@H]6CCCN6C(=O)[C@@H](NC(=O)OC)C(C)C)[nH]c5c4)cc3OC)cc2[nH]1)C(C)C [Compound 12] then? ≥ 8.30

Try Cn1c(C2CCCN2C(=O)OC(C)(C)C)nc2ccc(-c3ccc(-c4ccc5[nH]c(C6CCCN6C(=O)OC(C)(C)C)nc5c4)cc3)cc21 (centres unmarked) [Compound 256] next. 5.30 to 8.30

How about COC(=O)N[C@H](C(=O)N1CCCC[C@H]1c1nc2cc(C#Cc3ccc4[nH]c([C@@H]5CCCCN5C(=O)[C@@H](NC(=O)OC)C(C)C)nc4c3)ccc2[nH]1)C(C)C [Compound 58] ? ≥ 8.30

Queued: C(#Cc1ccc2[nH]c([C@@H]3CCCN3CC3CCCCC3)nc2c1)c1ccc2[nH]c([C@@H]3CCCN3CC3CCCCC3)nc2c1 [Compound 136] 5.30 to 8.30

What do you get for COC(=O)N[C@H](C(=O)N1CCC[C@H]1c1nc2cc(C#Cc3ccc4[nH]c([C@@H]5CCCN5C(=O)[C@@H](NC(=O)OC)C5CCCCC5)nc4c3)ccc2[nH]1)C1CCCCC1 [Compound 95] ? ≥ 8.30

What about this compound? COC(=O)N[C@H](C(=O)N1C[C@@H](C)C[C@H]1c1nc2cc(-c3ccc(-c4ccc5[nH]c([C@@H]6C[C@H](C)CN6C(=O)[C@H](C(C)C)N6CCOC6=O)nc5c4)cc3)ccc2[nH]1)C(C)C [Compound 305] ≥ 8.30

For Cn1c([C@@H]2CCCN2)nc2cc(-c3ccc(-c4ccc5[nH]c([C@@H]6CCCN6)nc5c4)cc3)ccc21 [Compound 228] then? < 5.30
